Record form. Attribute: IC50. Fill in for each entry.
Target: Alpha-glucosidase MAL32 (Saccharomyces cerevisiae (strain ATCC 204508 / S288c))
Sequence (P38158 whole entry): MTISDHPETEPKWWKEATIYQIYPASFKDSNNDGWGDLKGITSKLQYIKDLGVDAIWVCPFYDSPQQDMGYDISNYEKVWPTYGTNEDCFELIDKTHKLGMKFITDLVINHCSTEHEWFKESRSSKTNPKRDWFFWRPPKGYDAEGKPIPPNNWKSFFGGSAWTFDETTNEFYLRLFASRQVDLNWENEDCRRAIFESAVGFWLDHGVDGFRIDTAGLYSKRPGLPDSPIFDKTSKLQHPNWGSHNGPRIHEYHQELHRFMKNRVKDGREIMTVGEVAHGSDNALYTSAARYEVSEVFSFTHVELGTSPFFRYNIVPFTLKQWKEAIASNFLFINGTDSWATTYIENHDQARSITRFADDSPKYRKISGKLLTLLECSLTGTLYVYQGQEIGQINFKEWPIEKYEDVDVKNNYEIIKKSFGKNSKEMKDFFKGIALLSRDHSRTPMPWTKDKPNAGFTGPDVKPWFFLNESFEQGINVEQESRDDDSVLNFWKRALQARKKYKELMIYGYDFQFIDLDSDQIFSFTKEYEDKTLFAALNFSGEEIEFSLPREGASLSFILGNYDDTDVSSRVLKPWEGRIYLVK
Experiment: alpha-Glucosidase Inhibition Assay
Details: pH 7; 37 °C

Enquiry: Given the entry `COc1ccc2cc1Oc1ccc(cc1)CCc1ccccc1-c1ccc(cc1)CC2` , report its measured IC50.
Return: > 100 µM

Enquiry: CC(C)CC[C@@H](O)[C@@H](C)[C@H]1CCC2C3CC=C4C[C@@H](O)CC[C@]4(C)C3C[C@@H](C)C21 (stereo partly drawn) , same question.
Return: 100 µM

Enquiry: `COc1ccc2c(c1)CCc1ccc(cc1)Oc1cccc(c1)CCc1ccc-2c(OC)c1` , same question.
Return: > 30 µM
